METHOD SUMMARY: Non-compartmental plasma pharmacokinetics of sertraline and N-desmethylsertraline in HIV-infected and uninfected youth (IMPAACT P1080)
TEST PARAMETERS: human, in vivo, T1/2, HIV(-) cohort n = 16; median (interquartile range)
MEASURED PROPERTY: half-life (h)
Write it as a number; the unit h goes unstated.

Report half-life for CN[C@H]1CC[C@@H](c2ccc(Cl)c(Cl)c2)c2ccccc21 please. 26.4

* * *

Please respond with reported AUC for every item in the list.
METHOD SUMMARY: Plasma concentrations of protease inhibitors, ritonavir and efavirenz (antiretroviral exposures)
TEST PARAMETERS: human, in vivo
Expressed in ng·h/mL, but write only the number.

Bench note: what AUC did COC(=O)N[C@H](C(=O)N[C@@H](Cc1ccccc1)[C@@H](O)CN(Cc1ccc(-c2ccccn2)cc1)NC(=O)[C@@H](NC(=O)OC)C(C)(C)C)C(C)(C)C show? 27200

What value of AUC has been reported for the following compound? CC(C)c1nc(CN(C)C(=O)N[C@H](C(=O)N[C@@H](Cc2ccccc2)C[C@H](O)[C@H](Cc2ccccc2)NC(=O)OCc2cncs2)C(C)C)cs1 4900

What AUC value was documented for this compound, O=C1Nc2ccc(Cl)cc2[C@@](C#CC2CC2)(C(F)(F)F)O1 ? 24500

* * *

METHOD SUMMARY: Non-compartmental plasma pharmacokinetics of sertraline and N-desmethylsertraline in HIV-infected and uninfected youth (IMPAACT P1080)
TEST PARAMETERS: human, in vivo, 100 mg, Norm-Cmax, HIV(-) cohort n = 16; normalized to 100 mg once daily and 70 kg; median (interquartile range)
MEASURED PROPERTY: Cmax (ng/mL)
Numeric answer only, unit ng/mL assumed.

Could you share which Cmax value was measured for CN[C@H]1CC[C@@H](c2ccc(Cl)c(Cl)c2)c2ccccc21 ? 78.3

* * *

METHOD SUMMARY: Non-compartmental plasma pharmacokinetics of sertraline and N-desmethylsertraline in HIV-infected and uninfected youth (IMPAACT P1080)
TEST PARAMETERS: human, in vivo, po, CL/F, HIV(-) cohort n = 16; non-compartmental apparent oral clearance; median (interquartile range)
Procedure: International Maternal Pediatric Adolescent AIDS Clinical Trials Network (IMPAACT) P1080 was a multicenter, pilot study of psychiatric and antiretroviral medication concentrations in HIV-1-infected and uninfected youth. […] The area under the concentration vs. time curve from time 0–24 h post dose (AUC0−24) was estimated using the trapezoidal rule. Apparent oral clearance (CL/F), where F is bioavailability, was calculated as dose divided by AUC0−24. […] The half-life (t1/2) was calculated as 0.693/k. […]
MEASURED PROPERTY: CL/F
Give your result as the value with the unit written after it.

// query CL/F value for entry CN[C@H]1CC[C@@H](c2ccc(Cl)c(Cl)c2)c2ccccc21 23.3 mL/min/kg

* * *

METHOD SUMMARY: Non-compartmental plasma pharmacokinetics of sertraline and N-desmethylsertraline in HIV-infected and uninfected youth (IMPAACT P1080)
TEST PARAMETERS: human, in vivo, T1/2, PI/r cohort n = 12; median (interquartile range)
MEASURED PROPERTY: half-life

Query (compound): CN[C@H]1CC[C@@H](c2ccc(Cl)c(Cl)c2)c2ccccc21 ; field requested: half-life 18.1 h

* * *

METHOD SUMMARY: Non-compartmental plasma pharmacokinetics of sertraline and N-desmethylsertraline in HIV-infected and uninfected youth (IMPAACT P1080)
TEST PARAMETERS: read-out: Norm-C0; PI/r cohort n = 12; normalized to 100 mg once daily and 70 kg; median (interquartile range)
MEASURED PROPERTY: concentration
Please state the value followed by its unit.

Query (compound): CN[C@H]1CC[C@@H](c2ccc(Cl)c(Cl)c2)c2ccccc21 [Sertraline] ; field requested: concentration 17.8 ng/mL

* * *

METHOD SUMMARY: Non-compartmental plasma pharmacokinetics of sertraline and N-desmethylsertraline in HIV-infected and uninfected youth (IMPAACT P1080)
TEST PARAMETERS: human, in vivo, 100 mg, Norm-AUC0−24, PI/r cohort n = 12; normalized to a 100 mg once daily dose and a weight of 70 kg; median (interquartile range)
MEASURED PROPERTY: AUC(0-t) (ng·h/mL)
Express your answer in ng·h/mL, writing the number without its unit.

Please give the measured AUC(0-t) for this molecule: CN[C@H]1CC[C@@H](c2ccc(Cl)c(Cl)c2)c2ccccc21 [Sertraline] 791
